# Experimental Protocol: qHTS for Inhibitors of human tyrosyl-DNA phosphodiesterase 1 (TDP1): qHTS in cells in absence of CPT; note: nearly all actives have a fitted effect of over 55% in size
# Test Settings: DT40 Tdp1-/- hTDP1 cells, no CPT, ATP luminescence, 48 h
The whole screen tested about 420,000 compounds, of which about 64,000 (15%) were called active. Roughly 27% stayed inconclusive and do not appear here. Calls come from the whole dose curve; as a rule, active = well fitted inhibition curve with a large enough effect; inconclusive = small, poorly fitted or top-dose-only effect; inactive = flat fitted curve, though single readings scatter. A selection follows.
Select the correct class. Options are true = active, false = inactive and nothing else.

// below: answered compounds
[
  {
    "Compound": "CCN(CC)S(=O)(=O)c1ccc(N2CC(C(=O)NCc3cccnc3)CC2=O)cc1 (stereo unspecified)",
    "Assigned Category": "false"
  },
  {
    "Compound": "O=C(O)CCn1cc(/C=C/C(=O)c2ccc(Cl)cc2)c(-c2cccc(Br)c2)n1",
    "Assigned Category": "true"
  },
  {
    "Compound": "CCOC(=O)/C(C#N)=C/c1cn(CCC(=O)O)nc1-c1ccc(Br)cc1",
    "Assigned Category": "false"
  },
  {
    "Compound": "COc1ccccc1-c1nnc(-c2ccc(F)cc2)o1",
    "Assigned Category": "false"
  },
  {
    "Compound": "C[C@]12CC[C@H](O)CC1=CCC1C2CC[C@@]2(C)C1CC[C@@H]2NC(=O)CCC(=O)O (stereo partly specified)",
    "Assigned Category": "false"
  }
]

Which outcome was entered for the compound Cc1sc2nc(-c3ccccc3F)oc(=O)c2c1C in this test? false

----------
# Experimental Protocol: qHTS for Inhibitors of human tyrosyl-DNA phosphodiesterase 1 (TDP1): qHTS in cells in absence of CPT; note: nearly all actives have a fitted effect of over 55% in size
# Test Settings: DT40 Tdp1-/- hTDP1 cells, no CPT, ATP luminescence, 48 h
Among all 420,000 compounds or so, about 64,000 (15%) were called active. Roughly 27% stayed inconclusive and do not appear here. Calls come from the whole dose curve; as a rule, active = well fitted inhibition curve with a large enough effect; inconclusive = small, poorly fitted or top-dose-only effect; inactive = flat fitted curve, though single readings scatter. Not all results are given here.
Select the correct class. Options are 1 (active), 0 (inactive) and nothing else.

[
  {
    "Compound": "O=C1OCCC1=COCCCCOC=C1CCOC1=O",
    "Assigned Category": 0
  },
  {
    "Compound": "Cn1c(=O)c(=O)n(C)c2cc(NC(=O)c3ccccc3Br)ccc21",
    "Assigned Category": 0
  },
  {
    "Compound": "O=C(Nc1ccccc1)/C(=C\\c1ccco1)NC(=O)c1ccco1",
    "Assigned Category": 0
  }
]

Which outcome was entered for the compound C[C@@H]1CCCCO[C@H](CN(C)Cc2ccccc2)[C@@H](C)CN([C@H](C)CO)C(=O)c2cc(NS(=O)(=O)c3ccc(Cl)cc3)ccc2O1 in this test? 1

Which outcome was entered for the compound CC1(C(=O)Nc2cccc3c2CCCC3)CCN1C(=O)CCc1ccc(Cl)cc1Cl (stereo not given) in this test? 1

----------
# Experimental Protocol: qHTS for Inhibitors of human tyrosyl-DNA phosphodiesterase 1 (TDP1): qHTS in cells in absence of CPT; note: nearly all actives have a fitted effect of over 55% in size; note: potency is the fitted concentration of half-maximal effect
# Test Settings: DT40 Tdp1-/- hTDP1 cells, no CPT, ATP luminescence, 48 h
In all, about 420,000 compounds went through this assay and about 64,000 (15%) were called active. About 27% were inconclusive and are not listed. Not all results are given here.
Outcome Measure: Potency

As a guide, the following entries are already answered.
[
  {
    "Chemical Structure": "O=C(NC(=S)Nc1ncccn1)c1ccccc1Br",
    "Outcome Measure": "Potency",
    "Result": "inactive"
  },
  {
    "Chemical Structure": "Cc1ccc(C(=O)COC(=O)c2cccc(N3C(=O)c4c(C)nc5ccccc5c4C3=O)c2)cc1C",
    "Outcome Measure": "Potency",
    "Result": "inactive"
  },
  {
    "Chemical Structure": "CCN(CC(=O)NC(C)C)C(=O)CCNC(=O)c1ccc(Cl)cc1",
    "Outcome Measure": "Potency",
    "Result": "inactive"
  },
  {
    "Chemical Structure": "O=S(=O)([N-]c1nc2ccccc2nc1-[n+]1ccc(Cc2ccccc2)cc1)c1ccc(Br)s1",
    "Outcome Measure": "Potency",
    "Result": "14.6 µM (active)"
  },
  {
    "Chemical Structure": "O=C(COC(=O)c1c2c(nc3ccccc13)CCCC2)c1ccc(Br)s1",
    "Outcome Measure": "Potency",
    "Result": "7.31 µM (active)"
  }
]

Hi there! I need Potency for each item below, if you can.
1. CN(C)S(=O)(=O)c1ccc(N/C=C(\[N+](=O)[O-])S(=O)(=O)c2ccccc2)cc1
2. O=S(=O)(NCc1cccnc1)c1ccc(Br)s1
3. CCn1c(O)c2ccc(C(=O)N=NC(=O)c3cccnc3)cc2c1O

inactive
inactive
inactive

Hi there! I need Potency for each item below, if you can.
1. Cc1cc(C)c[n+](-c2nc3ccccc3nc2[N-]S(=O)(=O)c2cccs2)c1
2. O=C(COC(=O)c1ccncc1)c1ccccc1

1: inactive; 2: inactive
